Assay: Ability of compounds to pass through the blood-brain barrier (plasma and brain tissue concentration)
Type: in vivo
Settings: rat, plasma; male rats, iv 1 mg/kg, 30 min after administration; read-out: Concentration in peripheral plasma
EXPERIMENTAL ENDPOINT: concentration at 30 min (ng/mL)
Field format: number, assumed ng/mL, no unit text.

Let me know recorded concentration at 30 min for COCCOCCNCCCC[C@@H](NC(=O)[C@@H](CC(C)C)NC(=O)[C@@H](Cc1ccccc1)NC(=O)[C@H](N)Cc1ccccc1)C(=O)N1CCC(N)(C(=O)O)CC1 [Example 5] , thanks.
386

---

Target: UniProt P35372
Assay: Opioid receptor selectivity, radioligand competition binding (3H-DAMGO) on cell membranes
pIC50: −log10 of the molar value.
EXPERIMENTAL ENDPOINT: pIC50

Let me know recorded pIC50 for COCCOCCOCCOCCOCCOCCOCCNCCCC[C@@H](NC(=O)[C@@H](CC(C)C)NC(=O)[C@@H](Cc1ccccc1)NC(=O)[C@H](N)Cc1ccccc1)C(=O)N1CCC(N)(C(=O)O)CC1 [Example 6] , thanks.
< 4.70

---

Target: MOR (Homo sapiens, UniProt P35372)
Experiment: Opioid receptor selectivity, radioligand competition binding (3H-DAMGO) on cell membranes
pKi: −log10 of the molar value.
EXPERIMENTAL ENDPOINT: pKi

Fill: pKi (MOR (Homo sapiens, UniProt P35372)) for this molecule `COCCOCCOCCOCCOCCOCCOCCNCCCC[C@@H](NC(=O)[C@@H](CC(C)C)NC(=O)[C@@H](Cc1ccccc1)NC(=O)[C@H](N)Cc1ccccc1)C(=O)N1CCC(N)(C(=O)O)CC1`
< 5.14

---

Molecular target: KOR (Homo sapiens, UniProt P41145)
Assay: Opioid receptor selectivity, radioligand competition binding (3H-diprenophrine) on cell membranes
EXPERIMENTAL ENDPOINT: Ki (nM)
Field format: number, assumed nM, no unit text.

Let me know recorded Ki for `COCCOCCOCCOCCOCCOCCOCCNCCCC[C@@H](NC(=O)[C@@H](CC(C)C)NC(=O)[C@@H](Cc1ccccc1)NC(=O)[C@H](N)Cc1ccccc1)C(=O)N1CCC(N)(C(=O)O)CC1` , thanks.
0.11

---

Biological target: MOR (Homo sapiens)
Experiment: Opioid receptor selectivity, radioligand competition binding (3H-DAMGO) on cell membranes
Conditions: radioligand 3H-DAMGO, 1 h incubation; read-out: MOR IC50
EXPERIMENTAL ENDPOINT: IC50

Let me know recorded IC50 for `CC(C)C[C@@H](NC(=O)[C@@H](Cc1ccccc1)NC(=O)[C@H](N)Cc1ccccc1)C(=O)N[C@H](CCCCNCCCN)C(=O)N1CCC(N)(C(=O)O)CC1` , thanks.
> 20 µM

Let me know recorded IC50 for `COCCOCCNCCCC[C@@H](NC(=O)[C@@H](CC(C)C)NC(=O)[C@@H](Cc1ccccc1)NC(=O)[C@H](N)Cc1ccccc1)C(=O)N1CCC(N)(C(=O)O)CC1` , thanks.
> 20 µM

Let me know recorded IC50 for `CC(C)C[C@@H](NC(=O)[C@@H](Cc1ccccc1)NC(=O)[C@H](N)Cc1ccccc1)C(=O)N[C@H](CCCCNCCN)C(=O)N1CCC(N)(C(=O)O)CC1` , thanks.
> 20 µM

---

Assay: Ability of compounds to pass through the blood-brain barrier (plasma and brain tissue concentration)
Assay type: in vivo
Conditions: rat, plasma; male rats, iv 1 mg/kg, 60 min after administration; read-out: Concentration in peripheral plasma
EXPERIMENTAL ENDPOINT: concentration at 60 min (ng/mL)
Field format: number, assumed ng/mL, no unit text.

Let me know recorded concentration at 60 min for `COCCOCCNCCCC[C@@H](NC(=O)[C@@H](CC(C)C)NC(=O)[C@@H](Cc1ccccc1)NC(=O)[C@H](N)Cc1ccccc1)C(=O)N1CCC(N)(C(=O)O)CC1` , thanks.
136

---

Test: Ability of compounds to pass through the blood-brain barrier (plasma and brain tissue concentration)
Type: in vivo
Conditions: rat, plasma; male rats, iv 1 mg/kg, 5 min after administration; read-out: Concentration in peripheral plasma
EXPERIMENTAL ENDPOINT: concentration at 5 min (ng/mL)
Field format: number, assumed ng/mL, no unit text.

Let me know recorded concentration at 5 min for `COCCOCCNCCCC[C@@H](NC(=O)[C@@H](CC(C)C)NC(=O)[C@@H](Cc1ccccc1)NC(=O)[C@H](N)Cc1ccccc1)C(=O)N1CCC(N)(C(=O)O)CC1` , thanks.
1310

---

Molecular target: MOR (Homo sapiens)
Experiment: Opioid receptor selectivity, radioligand competition binding (3H-DAMGO) on cell membranes
Details: Ki=IC50/(1+[radioligand]/Kd); read-out: MOR Ki
Assignment: determine reported Ki for the given compounds.

Let me know recorded Ki for `CC(C)C[C@@H](NC(=O)[C@@H](Cc1ccccc1)NC(=O)[C@H](N)Cc1ccccc1)C(=O)N[C@H](CCCCNCCCN)C(=O)N1CCC(N)(C(=O)O)CC1` , thanks.
> 7.18 µM

Let me know recorded Ki for `CC(C)C[C@@H](NC(=O)[C@@H](Cc1ccccc1)NC(=O)[C@H](N)Cc1ccccc1)C(=O)N[C@H](CCCCNCCN)C(=O)N1CCC(N)(C(=O)O)CC1` , thanks.
> 7.18 µM

Let me know recorded Ki for `COCCOCCNCCCC[C@@H](NC(=O)[C@@H](CC(C)C)NC(=O)[C@@H](Cc1ccccc1)NC(=O)[C@H](N)Cc1ccccc1)C(=O)N1CCC(N)(C(=O)O)CC1` , thanks.
> 7.18 µM

---

Assignment: determine reported IC50 for the given compounds.
Biological target: UniProtKB P41145
Assay: Opioid receptor selectivity, radioligand competition binding (3H-diprenophrine) on cell membranes
Details: radioligand 3H-diprenophrine, 1 h incubation; read-out: KOR IC50

Let me know recorded IC50 for CC(C)C[C@@H](NC(=O)[C@@H](Cc1ccccc1)NC(=O)[C@H](N)Cc1ccccc1)C(=O)N[C@H](CCCCNCCCN)C(=O)N1CCC(N)(C(=O)O)CC1 [Example 4] , thanks.
< 0.03 nM

Let me know recorded IC50 for COCCOCCNCCCC[C@@H](NC(=O)[C@@H](CC(C)C)NC(=O)[C@@H](Cc1ccccc1)NC(=O)[C@H](N)Cc1ccccc1)C(=O)N1CCC(N)(C(=O)O)CC1 [Example 5] , thanks.
0.05 nM

Let me know recorded IC50 for CC(C)C[C@@H](NC(=O)[C@@H](Cc1ccccc1)NC(=O)[C@H](N)Cc1ccccc1)C(=O)N[C@H](CCCCNCCN)C(=O)N1CCC(N)(C(=O)O)CC1 [Example 3] , thanks.
< 0.03 nM

---

Assignment: determine reported Vd for the given compounds.
Experiment: Pharmacokinetic (PK) study in rats
Format: in vivo
Details: rat, plasma; male SD rats, intravenous, 1 mg/kg
Field format: number, assumed L/kg, no unit text.

Let me know recorded Vd for COCCOCCOCCOCCOCCOCCOCCNCCCC[C@@H](NC(=O)[C@@H](CC(C)C)NC(=O)[C@@H](Cc1ccccc1)NC(=O)[C@H](N)Cc1ccccc1)C(=O)N1CCC(N)(C(=O)O)CC1 [Example 6] , thanks.
0.2

Let me know recorded Vd for CC(C)C[C@@H](NC(=O)[C@@H](Cc1ccccc1)NC(=O)[C@H](N)Cc1ccccc1)C(=O)N[C@H](CCCCNCCN)C(=O)N1CCC(N)(C(=O)O)CC1 [Example 3] , thanks.
0.28

Let me know recorded Vd for CC(C)C[C@@H](NC(=O)[C@@H](Cc1ccccc1)NC(=O)[C@H](N)Cc1ccccc1)C(=O)N[C@H](CCCCNCCCN)C(=O)N1CCC(N)(C(=O)O)CC1 [Example 4] , thanks.
0.74

Let me know recorded Vd for COCCOCCNCCCC[C@@H](NC(=O)[C@@H](CC(C)C)NC(=O)[C@@H](Cc1ccccc1)NC(=O)[C@H](N)Cc1ccccc1)C(=O)N1CCC(N)(C(=O)O)CC1 [Example 5] , thanks.
0.53

---

Assay: Ability of compounds to pass through the blood-brain barrier (plasma and brain tissue concentration)
Format: in vivo
Settings: rat, brain; male rats, iv 1 mg/kg, 5 min after administration; read-out: Concentration in brain tissue
EXPERIMENTAL ENDPOINT: concentration at 5 min (ng/mL)
Field format: number, assumed ng/mL, no unit text.

Let me know recorded concentration at 5 min for `COCCOCCNCCCC[C@@H](NC(=O)[C@@H](CC(C)C)NC(=O)[C@@H](Cc1ccccc1)NC(=O)[C@H](N)Cc1ccccc1)C(=O)N1CCC(N)(C(=O)O)CC1` , thanks.
0

---

Assignment: determine reported Cmax for the given molecules.
Assay: Pharmacokinetic (PK) study in rats
Type: in vivo
Settings: rat, plasma; male SD rats, intravenous, 1 mg/kg
Field format: number, assumed µg/mL, no unit text.

Let me know recorded Cmax for `COCCOCCOCCOCCOCCOCCOCCNCCCC[C@@H](NC(=O)[C@@H](CC(C)C)NC(=O)[C@@H](Cc1ccccc1)NC(=O)[C@H](N)Cc1ccccc1)C(=O)N1CCC(N)(C(=O)O)CC1` , thanks.
3.66

Let me know recorded Cmax for `COCCOCCNCCCC[C@@H](NC(=O)[C@@H](CC(C)C)NC(=O)[C@@H](Cc1ccccc1)NC(=O)[C@H](N)Cc1ccccc1)C(=O)N1CCC(N)(C(=O)O)CC1` , thanks.
1.69

Let me know recorded Cmax for `CC(C)C[C@@H](NC(=O)[C@@H](Cc1ccccc1)NC(=O)[C@H](N)Cc1ccccc1)C(=O)N[C@H](CCCCNCCN)C(=O)N1CCC(N)(C(=O)O)CC1` , thanks.
2.65

Let me know recorded Cmax for `CC(C)C[C@@H](NC(=O)[C@@H](Cc1ccccc1)NC(=O)[C@H](N)Cc1ccccc1)C(=O)N[C@H](CCCCNCCCN)C(=O)N1CCC(N)(C(=O)O)CC1` , thanks.
3.59
